- Tested on: A673
- Assay summary: Hits validation, dose-response cell proliferation (CellTiter-Glo)
- Type: cell-based
- Settings: Homo sapiens, A673; 12-point dose-response 50 μmol/L to 1 nmol/L, mean ± SD
pIC50: −log10 of the molar value.
Given measured pIC50, output True if it is greater than or equal to 6 and False if not.

Compound | Group
CN(NC(=O)CC(=O)NN(C)C(=S)c1ccccc1)C(=S)c1ccccc1 [Elesclomol] | True
O=C(Nc1ccc([N+](=O)[O-])cc1Cl)c1cc(Cl)ccc1O [Niclosamide] | False
COC1=C2C[C@@H](C)C[C@H](OC)[C@H](O)[C@@H](C)/C=C(\C)[C@H](OC(N)=O)[C@@H](OC)/C=C\C=C(/C)C(=O)NC(=CC1=O)C2=O [Geldanamycin] | False
COc1cc2nc(N(C)CCCNC(=O)C3CCCO3)nc(N)c2cc1OC (centres unmarked) [Alfuzosin] | False
CCNC(=O)c1noc(-c2cc(C(C)C)c(O)cc2O)c1-c1ccc(CN2CCOCC2)cc1 [AUY922] | True
O=C(O)CCC(=O)c1ccc(-c2ccccc2)cc1 [Fenbufen] | False
COc1ccc(C[C@H](N)C(=O)N[C@H]2[C@@H](O)[C@H](n3cnc4c(N(C)C)ncnc43)O[C@@H]2CO)cc1 [Puromycin] | True
CC1=CC(=O)c2ccccc2C1=O [Menadione] | False
